target: BCL2 G101V (Homo sapiens, UniProt P10415, G101V); test: TR-FRET competitive binding assay, BCL2 G101V; details: BCL2 G101V; Ki determined from IC50; read-out: TR_FRET EKI_Bcl2 G101V
measured parameter: Ki

The following molecules have reported results that may help.
>  <molecule>
Cc1c(N(C(=O)c2cc(-c3cc4c(cc3C(=O)N3Cc5ccccc5C[C@H]3COCC3CC3)CN(C(=O)Cc3ccc(OCCN5CCOCC5)cc3F)CC4)n(C)c2C)c2ccc(O)cc2)cc(C#N)n1C

>  <Ki>
1.3 nM

$$$$
>  <molecule>
Cc1c(N(C(=O)c2cc(-c3cc4c(cc3C(=O)N3Cc5ccccc5C[C@H]3CN3CCCCC3)CN(C(=O)Cc3ccc(OCCN5CCOC(C)C5)cc3F)CC4)n(C)c2C)c2ccc(O)cc2)cc(C#N)n1C (single isomer, unassigned) [Example 108]

>  <Ki>
0.4 nM

$$$$
>  <molecule>
Cc1c(C(=O)N(c2ccc(O)cc2)c2ccc3c(cnn3C)c2)cc(-c2cc3c(cc2C(=O)N2Cc4ccccc4C[C@H]2C)CN(C(=O)Cc2ccc(OCCN4CCOCC4)cc2)CC3)n1C

>  <Ki>
0.8 nM

$$$$
>  <molecule>
Cc1c(N(C(=O)c2cc(-c3cc4c(cc3C(=O)N3Cc5ccccc5C[C@H]3C)CN(C(=O)Cc3ccc(OCCN5CCC(F)(F)C5)cc3)CC4)n(C)c2C)c2ccc(O)cc2)cc(C#N)n1C

>  <Ki>
0.6 nM

$$$$

Consider the record given below.
Query: Find the measured Ki of Cc1c(N(C(=O)c2cc(-c3cc4c(cc3C(=O)N3Cc5ccccc5C[C@H]3C)CN(C(=O)Cc3ccc(OCCN5CC6(CCS6(=O)=O)C5)cc3)CC4)n(C)c2C)c2ccc(O)cc2)cc(C#N)n1C with BCL2 G101V (Homo sapiens, UniProt P10415, G101V) as test system.
Reply: 0.3 nM

All figures here come from patent US20250179047A1.
